Measurement target: Estrogen receptor (Homo sapiens) (UniProt P03372)
Sequence (P03372 whole entry, looked up): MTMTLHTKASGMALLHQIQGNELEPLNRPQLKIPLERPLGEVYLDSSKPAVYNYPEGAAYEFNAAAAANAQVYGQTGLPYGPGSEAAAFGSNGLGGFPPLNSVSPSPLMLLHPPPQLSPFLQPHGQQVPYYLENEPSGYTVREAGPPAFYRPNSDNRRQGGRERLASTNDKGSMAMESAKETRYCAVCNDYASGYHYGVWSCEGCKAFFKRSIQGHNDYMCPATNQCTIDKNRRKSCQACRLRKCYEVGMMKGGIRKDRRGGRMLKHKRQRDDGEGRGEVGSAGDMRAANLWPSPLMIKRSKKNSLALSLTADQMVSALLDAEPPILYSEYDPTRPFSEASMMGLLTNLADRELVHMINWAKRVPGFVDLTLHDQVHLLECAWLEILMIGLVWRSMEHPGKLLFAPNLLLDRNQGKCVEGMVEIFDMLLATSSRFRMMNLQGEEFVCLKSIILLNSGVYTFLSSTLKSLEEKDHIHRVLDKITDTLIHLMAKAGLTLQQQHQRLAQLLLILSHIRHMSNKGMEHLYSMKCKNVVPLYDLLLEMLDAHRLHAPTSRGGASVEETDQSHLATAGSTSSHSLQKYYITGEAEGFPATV
Procedure summary: qHTS assay to identify small molecule agonists of the estrogen receptor alpha (ER-alpha) signaling pathway (AID 743075);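 note: HEK293 GripTite cells with ER-alpha and UAS-driven beta-lactamase reporter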
Condition: HEK293 ER-alpha-UAS-bla, beta-lactamase FRET ratio, 18 h; series mostly up to 70.1 µM
Activity calls are given as the source filed them. Calls come from the whole dose curve.
Possible outcomes: true = active, false = inactive

{"columns": ["Molecule", "Measurement target", "Group label"],
 "data": [
  ["CCCCCCCCCCCC(=O)OCC", "Estrogen receptor (Homo sapiens) (UniProt P03372)", "false"],
  ["Cc1cc(C)n(CO)n1", "Estrogen receptor (Homo sapiens) (UniProt P03372)", "false"],
  ["COC(=O)Cc1cccc2ccccc12", "Estrogen receptor (Homo sapiens) (UniProt P03372)", "false"],
  ["CCc1ccc2c(c1)C(=O)c1ccccc1C2=O", "Estrogen receptor (Homo sapiens) (UniProt P03372)", "false"],
  ["CCC(CC)C(=O)O", "Estrogen receptor (Homo sapiens) (UniProt P03372)", "false"],
  ["O=c1[nH][nH]c2ccccc12", "Estrogen receptor (Homo sapiens) (UniProt P03372)", "false"],
  ["CNc1ccccc1", "Estrogen receptor (Homo sapiens) (UniProt P03372)", "false"],
  ["O=C(O)c1ccc2c(c1)nc(C(=O)NC1CCN(C3CC3)CC1)n2Cc1cc(-c2ccc(Cl)s2)on1", "Estrogen receptor (Homo sapiens) (UniProt P03372)", "false"],
  ["O=Cc1ccc(Cl)c([N+](=O)[O-])c1", "Estrogen receptor (Homo sapiens) (UniProt P03372)", "false"],
  ["CC(C)Oc1ccccc1O", "Estrogen receptor (Homo sapiens) (UniProt P03372)", "false"],
  ["CC1(C)C(=O)NC(=O)N1CO", "Estrogen receptor (Homo sapiens) (UniProt P03372)", "false"],
  ["COc1cccc([C@H](O)C2CCN(CCc3ccc(F)cc3)CC2)c1OC", "Estrogen receptor (Homo sapiens) (UniProt P03372)", "false"],
  ["CCCCCCC/C=C/C=O", "Estrogen receptor (Homo sapiens) (UniProt P03372)", "false"],
  ["CC(=O)c1ccc(Cl)c(Cl)c1Cl", "Estrogen receptor (Homo sapiens) (UniProt P03372)", "false"],
  ["O=C1c2ccccc2C(=O)C1c1ccc2ccccc2n1", "Estrogen receptor (Homo sapiens) (UniProt P03372)", "false"],
  ["O=C(c1ccc(Cl)cc1)c1ccc(Cl)cc1", "Estrogen receptor (Homo sapiens) (UniProt P03372)", "false"],
  ["CCn1nc(Cc2ccccc2)cc1C1CCN(C[C@H]2C[C@H](N(C)[C@@H](C(=O)O)C(C)C)C[C@@H]2c2cccc(F)c2)CC1", "Estrogen receptor (Homo sapiens) (UniProt P03372)", "false"],
  ["CCCOC(C)=O", "Estrogen receptor (Homo sapiens) (UniProt P03372)", "false"],
  ["O=C1OC(=O)C2CC=CCC12 (stereo not drawn)", "Estrogen receptor (Homo sapiens) (UniProt P03372)", "false"],
  ["C/C(=C\\C(C)CC(C)CC(C)C)C1CC(=O)OC1=O (stereo not drawn)", "Estrogen receptor (Homo sapiens) (UniProt P03372)", "false"],
  ["CC(Cc1ccccc1)(NC(=O)CN)c1ccccc1 (stereo not drawn)", "Estrogen receptor (Homo sapiens) (UniProt P03372)", "false"],
  ["CC(=O)c1cccnc1", "Estrogen receptor (Homo sapiens) (UniProt P03372)", "false"],
  ["O=Cc1ccc([N+](=O)[O-])cc1", "Estrogen receptor (Homo sapiens) (UniProt P03372)", "false"],
  ["CCCCCC1CCC(=O)O1 (stereo not drawn)", "Estrogen receptor (Homo sapiens) (UniProt P03372)", "false"],
  ["CCOc1cc(OCC)c(C(C)=O)cc1OCC", "Estrogen receptor (Homo sapiens) (UniProt P03372)", "false"],
  ["O=C(O)c1cccc(C(=O)O)c1C(=O)O", "Estrogen receptor (Homo sapiens) (UniProt P03372)", "false"],
  ["c1ccc(CCNc2nc(-c3ccccc3)cs2)cc1", "Estrogen receptor (Homo sapiens) (UniProt P03372)", "false"],
  ["CCN(CCCCOC(=O)c1ccc(OC)c(OC)c1)C(C)Cc1ccc(OC)cc1 (stereo not drawn)", "Estrogen receptor (Homo sapiens) (UniProt P03372)", "false"],
  ["O=C(O)c1ccc(O)c(O)c1", "Estrogen receptor (Homo sapiens) (UniProt P03372)", "false"],
  ["COC(=O)/C=C/C(C)=C\\C=C\\C(C)=C\\C=C\\C=C(C)\\C=C\\C=C(C)\\C=C\\C(=O)O", "Estrogen receptor (Homo sapiens) (UniProt P03372)", "false"],
  ["O=C(O)c1ccccc1-n1cc(C(=O)O)c(=O)c2cc(Nc3c(F)cc(F)cc3Cl)c(Cl)cc21", "Estrogen receptor (Homo sapiens) (UniProt P03372)", "false"],
  ["O=S(=O)(O)c1cc(Cl)c(Cl)cc1Cl", "Estrogen receptor (Homo sapiens) (UniProt P03372)", "false"],
  ["Oc1ccc(Oc2ccccc2)cc1", "Estrogen receptor (Homo sapiens) (UniProt P03372)", "true"],
  ["S=c1[nH][nH]c(=S)s1", "Estrogen receptor (Homo sapiens) (UniProt P03372)", "false"],
  ["CC(CCl)OC(C)CCl (stereo not drawn)", "Estrogen receptor (Homo sapiens) (UniProt P03372)", "false"],
  ["Nc1cccc2c(=O)[nH][nH]c(=O)c12", "Estrogen receptor (Homo sapiens) (UniProt P03372)", "false"],
  ["Nc1ncnc2c1ncn2[C@@H]1O[C@H](CO)[C@@H](O)[C@H]1O", "Estrogen receptor (Homo sapiens) (UniProt P03372)", "false"],
  ["O=C(O)c1cc(C(=O)O)c(C(=O)O)cc1C(=O)O", "Estrogen receptor (Homo sapiens) (UniProt P03372)", "false"]
]}
